# assay_system: UniProt:P00533
# Sequence (P00533 25-1210): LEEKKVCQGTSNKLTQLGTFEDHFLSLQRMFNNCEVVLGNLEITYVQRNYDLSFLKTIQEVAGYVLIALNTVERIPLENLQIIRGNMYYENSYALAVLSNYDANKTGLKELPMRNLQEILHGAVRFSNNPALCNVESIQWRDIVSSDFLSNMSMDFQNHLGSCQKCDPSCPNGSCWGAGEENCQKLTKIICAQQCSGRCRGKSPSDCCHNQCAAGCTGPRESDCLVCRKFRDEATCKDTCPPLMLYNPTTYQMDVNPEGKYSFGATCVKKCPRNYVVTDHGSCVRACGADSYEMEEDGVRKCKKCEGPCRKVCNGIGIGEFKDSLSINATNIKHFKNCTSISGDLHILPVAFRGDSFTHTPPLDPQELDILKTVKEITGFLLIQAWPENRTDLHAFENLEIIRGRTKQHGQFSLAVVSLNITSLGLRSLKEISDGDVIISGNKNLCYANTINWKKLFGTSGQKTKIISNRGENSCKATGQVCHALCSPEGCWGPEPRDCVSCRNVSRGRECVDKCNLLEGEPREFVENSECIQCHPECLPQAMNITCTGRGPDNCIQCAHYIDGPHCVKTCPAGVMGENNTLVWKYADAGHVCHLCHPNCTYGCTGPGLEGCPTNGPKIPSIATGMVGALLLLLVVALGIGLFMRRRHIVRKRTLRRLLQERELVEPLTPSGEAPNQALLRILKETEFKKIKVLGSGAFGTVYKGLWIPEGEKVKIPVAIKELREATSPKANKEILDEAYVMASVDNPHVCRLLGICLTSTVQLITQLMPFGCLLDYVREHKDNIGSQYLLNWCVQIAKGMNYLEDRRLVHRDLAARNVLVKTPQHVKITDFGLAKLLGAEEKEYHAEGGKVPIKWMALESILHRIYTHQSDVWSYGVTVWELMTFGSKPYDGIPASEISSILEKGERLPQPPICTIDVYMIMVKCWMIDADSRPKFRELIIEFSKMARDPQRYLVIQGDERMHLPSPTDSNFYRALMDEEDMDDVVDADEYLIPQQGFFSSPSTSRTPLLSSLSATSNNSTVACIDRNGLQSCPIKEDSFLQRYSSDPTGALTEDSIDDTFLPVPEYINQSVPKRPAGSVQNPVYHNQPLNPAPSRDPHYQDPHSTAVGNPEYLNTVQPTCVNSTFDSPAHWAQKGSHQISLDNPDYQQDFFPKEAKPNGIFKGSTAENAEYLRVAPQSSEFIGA
# experiment_notes: EGFR human kinase assay (glass-fiber filter)
# Format: biochemical
# applied_conditions: test concentration of 10^−6M
readout_name: C4 score (inhibition of EGFR human)

The cases that follow already have their C4 score (inhibition of EGFR human) on record.
Task: What value of C4 score (inhibition of EGFR human) has been reported for the following compound? COc1ccc2cc1OCCNC(=O)[C@@H]1CCCN1Cc1cc(F)c(Cl)cc1Nc1nc(ncc1C#N)N2
Output: 2 (Score 2=30-60% inhibition)

Task: What value of C4 score (inhibition of EGFR human) has been reported for the following compound? COc1ccc2cc1OCCCCCCCOc1ccc(Br)cc1Nc1cc(ncn1)N2
Output: 3 (Score 3=60-80% inhibition)

Task: What value of C4 score (inhibition of EGFR human) has been reported for the following compound? COc1ccc2cc1OCCCNC(=O)[C@@H]1CCCN1Cc1cc(F)c(Cl)cc1Nc1nc(ncc1C#N)N2
Output: 1 (Score 1=10-30% inhibition)

Task: What value of C4 score (inhibition of EGFR human) has been reported for the following compound? COc1ccc2cc1OCCCCCCCCOc1ccc(Br)cc1Nc1cc(ncn1)N2
Output: 3 (Score 3=60-80% inhibition)

Task: What value of C4 score (inhibition of EGFR human) has been reported for the following compound? COc1ccc2cc1OCCCNC(=O)[C@H](CC(C)C)NC(=O)Cc1ccc(Cl)cc1Nc1cc(ncn1)N2
Output: 4 (Score 4=>80% inhibition)

Task: What value of C4 score (inhibition of EGFR human) has been reported for the following compound? COc1cc2cc(c1)OCCCCCCOc1ccc(Br)cc1Nc1cc(ncn1)N2
Output: 4 (Score 4=>80% inhibition)

Below are 2 compounds. Give each one its C4 score (inhibition of EGFR human).
1. COc1ccc2cc1OCCCCCCOc1ccc(Br)cc1Nc1cc(ncn1)N2
2. Cl.Cl.O=C1CNC(=O)Cc2ccc(Cl)cc2Nc2cc(ncn2)Nc2ccc(OCCCN3CCOCC3)c(c2)OCCN1

Output:
["4 (Score 4=>80% inhibition)", "4 (Score 4=>80% inhibition)"]
